Molecular target: Melanocortin receptor 5 (Homo sapiens, UniProt P33032)
Sequence (P33032 whole entry, the tested form may be a part): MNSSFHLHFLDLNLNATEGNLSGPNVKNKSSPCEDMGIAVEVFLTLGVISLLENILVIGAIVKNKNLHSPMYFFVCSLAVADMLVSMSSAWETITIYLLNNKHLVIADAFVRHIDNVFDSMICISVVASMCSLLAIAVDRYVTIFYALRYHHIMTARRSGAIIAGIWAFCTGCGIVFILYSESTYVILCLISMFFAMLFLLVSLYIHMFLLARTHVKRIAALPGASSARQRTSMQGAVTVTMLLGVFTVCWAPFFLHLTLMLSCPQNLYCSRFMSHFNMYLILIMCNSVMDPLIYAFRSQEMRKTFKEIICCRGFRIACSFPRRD
Experiment: Displacement of [125I]-NDP-alpha-MSH from human MC5R LBD expressed in HEK293 cell membranes incubated for 16 to 23 hrs in dark by scintillation proximity assay
Parameters: concentration or dose not given beside the values
Settings: concentration not given here
Reported values of inhibition for individual entries

// query Return inhibition (reported value) for this compound: CC[C@H](C)[C@@H]1NC(=O)[C@@H]2CCCN2C(=O)[C@H](Cc2c[nH]c3ccccc23)NC(=O)[C@H](CCCNC(=N)N)N(C)C(=O)[C@@H](Cc2ccccc2)NC(=O)[C@H](Cc2cnc[nH]2)NC(=O)[C@H]([C@@H](C)O)NC(=O)[C@@H]2CSSC[C@H](NC1=O)C(=O)N[C@@H](Cc1ccccc1)C(=O)N1CCC[C@H]1C(=O)N[C@@H](CC(=O)O)C(=O)NCC(=O)N[C@@H](CCCNC(=N)N)C(=O)N2
// result 100%

// query Return inhibition (reported value) for this compound: CC[C@H](C)[C@@H]1NC(=O)[C@@H]2CCCN2C(=O)[C@@H]2CCCN2C(=O)[C@H]([C@@H](C)CC)NC(=O)[C@H](CO)NC(=O)[C@H](C)NC(=O)[C@H]([C@H](C)O)NC(=O)[C@@H]2CSSC[C@H](NC1=O)C(=O)N[C@@H](Cc1cnc[nH]1)C(=O)N[C@H](Cc1ccccc1)C(=O)N[C@@H](CCCNC(=N)N)C(=O)N(C)[C@@H](Cc1c[nH]c3ccccc13)C(=O)N[C@@H](CCCNC(=N)N)C(=O)N2
// result 100%

// query Return inhibition (reported value) for this compound: CC[C@H](C)[C@@H]1NC(=O)[C@@H]2CCCN2C(=O)[C@H](Cc2c[nH]c3ccccc23)NC(=O)[C@H](CCCNC(=N)N)NC(=O)[C@H](Cc2ccccc2)NC(=O)[C@H](Cc2cnc[nH]2)NC(=O)[C@H]([C@@H](C)O)NC(=O)[C@@H]2CSSC[C@H](NC1=O)C(=O)N[C@@H](Cc1ccccc1)C(=O)N1CCC[C@H]1C(=O)N[C@@H](CC(=O)O)C(=O)NCC(=O)N[C@@H](CCCNC(=N)N)C(=O)N2
// result 100%
